These measurements were taken from PubChem BioAssay (NCI).

Each record here notes measured growth.
# System: BT-549 breast
# Test method notes: NCI-60 one-dose screen, 48 h (100 = growth as untreated, 0 = no growth, -100 = all killed)
# Cond: 10 µM
Compounds without any hit were thinned out: in the full panel of roughly 83,000, 20% have a hit.
Measured attribute: growth (%)

• CC1(C)OB(c2ccc(Cn3cc(F)c(=O)[nH]c3=O)cc2)OC1(C)C = 104
• CCCCCCCCCCCCCCCc1ccc(Cl)c(O)c1Cl (tested in a mixture with another compound) = 103
• O=C(O)c1sccc1O = 69.5
• CNC(=O)c1cc(Oc2ccc(CC(=O)Nc3cc(C(C)(C)C)nn3C)cc2)ccn1 = 82.4
• Cc1[nH]c(-c2nc3ccccc3[nH]2)c(C)c1C(=O)NC(C)C1CCCCC1 (stereo unspecified) = 95.5
• CC#C[C@]1(O)CC[C@H]2[C@@H]3CCC4=CC(=O)CCC4=C3[C@@H](c3ccc4c(c3)OCO4)C[C@@]21C = 77.8

----------
Reported growth values for the following compounds.
# System: LOX IMVI melanoma
# Test method notes: NCI-60 one-dose screen, 48 h (100 = growth as untreated, 0 = no growth, -100 = all killed)
# Cond: 10 µM
The panel holds about 83,000 compounds, 20% with a hit somewhere; the sample as a whole holds those more often. Calls of active or inactive are those of the source. The calls were made as follows: active = growth percent below 10; inactive = the rest.
Measured attribute: growth

• CC#C[C@]1(O)CC[C@H]2[C@@H]3CCC4=CC(=O)CCC4=C3[C@@H](c3ccc4c(c3)OCO4)C[C@@]21C = 83.7% (inactive)
• CCCCCCCCCCCCCCCc1ccc(Cl)c(O)c1Cl (tested in a mixture with another compound) = 99.2% (inactive)
• CNC(=O)c1cc(Oc2ccc(CC(=O)Nc3cc(C(C)(C)C)nn3C)cc2)ccn1 = 48.9% (inactive)
• O=C(O)c1sccc1O = 80.3% (inactive)

----------
# Test system: ACHN renal
# Test method notes: NCI-60 one-dose screen, 48 h (100 = growth as untreated, 0 = no growth, -100 = all killed)
# Cond: 10 µM unless noted
The panel holds about 83,000 compounds, 20% with a hit somewhere; the sample as a whole holds those more often.
Strictly below 90% in growth: True. Otherwise: False.

- CCOC(=O)C(CNc1ccccc1)C(=O)OCC: False
- N#C/C(=C1C=C/C(=N/O)C(Br)=C/1)c1ccccc1: True
- O=C(Cc1cccc2ccccc12)N/N=C/c1ccc2c(c1)CCC2: True
- CCOC(=O)c1sc(N)nc1-c1ccccc1: False
- CC(O)Cn1cnc2c1c(=O)n(C)c(=O)n2C (configuration not stated): False
- C1CCCCNCCC1: False

----------
growth listing for selected molecules.
# Test system: OVCAR-4 ovarian
# Test method notes: NCI-60 one-dose screen, 48 h (100 = growth as untreated, 0 = no growth, -100 = all killed)
# Cond: 10 µM unless noted
This is part of a sample that, as a whole, favours compounds with a hit. Of some 83,000 tested, about 20% had one in any assay.
Measured attribute: growth (%)

• C[N+](C)(C)CN1C(=O)c2ccccc2C1=O = 101
• CCOC(=O)c1sc(N)nc1-c1ccccc1 = 106
• N=C1N=C(N)CS1 = 99.8
• O=C(Cc1cccc2ccccc12)N/N=C/c1ccc2c(c1)CCC2 = 104
• O=C(N/N=C/c1ccccc1)N/N=C/c1ccccc1 = 115
• Oc1ccccc1C=NCC1CCC(CN=Cc2ccccc2O)CC1 (stereo unspecified) = 116
• CC12CCC(CC1)C(C)(C)O2 = 113
• NC(=S)NS(=O)(=O)c1ccc(N)cc1 = 113
• O=[N+]([O-])c1ccccc1N(S(=O)(=O)c1ccccc1)S(=O)(=O)c1ccccc1 = 115
• NC(=S)N/N=C(\c1ccc(Br)cc1)C1CC1 = 74.4
• N#CCCOc1ccccc1 = 98.8
• Nc1ccccc1SC1CC(=O)N(c2cccc3ccccc23)C1=O (stereo unspecified) = 93.6
• N#C/C(=C/c1c(O)ccc2ccccc12)C(N)=O = 92
• CC(C)(C)c1ccc(O)c(CNC2CCCCC2)c1 = 82.8
• COc1ccc2ccccc2c1/C=N/N1CCCCC1 = 99.5
• NC(=S)NN=C1CCC(C2CCCCC2)CC1 (stereo unspecified) = 33.8
• O=C1c2ccccc2C(=O)N1/N=C/c1ccc2c(c1)OCO2 = 113
• CC1=C(/C=C/C(C)=C/C=C/C(C)=C/C(=O)Nc2ccc(O)cc2)C(C)(C)CCC1 = 44.3
• CC(=O)C(/C=N/C(N)=O)=C(/C)O = 114
• CCC(C)C1(C2CCCC2)NC(=O)NC1=O (stereo unspecified) = 102
• CC(=O)Nc1cc(S(=O)(=O)O)cc2cc(S(=O)(=O)O)c(N=Nc3ccccc3)c(O)c12 = 109
• CCCCCCCCCCCCOc1ccccc1C=O = 86.5
• O=C(O)CSCc1nc2ccccc2[nH]1 = 107
• O=[N+]([O-])c1ccc(/C=N\NC(=S)Nc2ccc(F)cc2)cc1 = 92.6
• Fc1ccccc1Nc1n[nH]c(=S)s1 = 122
• COc1cc(/C=N/Nc2nc3c([nH]2)c(=O)n(C)c(=O)n3C)ccc1O = 108

----------
# Tested on: KM12 colon
# Test method notes: NCI-60 one-dose screen, 48 h
# Cond: 10 µM unless noted
The panel holds about 83,000 compounds, 20% with a hit somewhere; the sample as a whole holds those more often. Calls of active or inactive are those of the source. The calls were made as follows: active = growth percent below 10; inactive = the rest.
Possible outcomes: active, inactive

• Cc1n[nH]c(=O)n(/N=C\c2c[nH]c3ccccc23)c1=O = inactive
• O=[N+]([O-])c1ccc2nc3c4ccccc4c4ccccc4c3nc2c1 = inactive
• Cc1ccc(-c2noc(CC(=O)c3ccc([N+](=O)[O-])cc3)n2)cc1 = inactive
• N#CCCOc1ccccc1 = inactive
• NCCSC(C[N+](=O)[O-])c1ccccc1Cl (stereo not drawn) = active
• Fc1ccccc1Nc1n[nH]c(=S)s1 = inactive
• CC1=C(/C=C/C(C)=C/C=C/C(C)=C/C(=O)Nc2ccc(O)cc2)C(C)(C)CCC1 = inactive
• O=C(Cc1cccc2ccccc12)N/N=C/c1ccc2c(c1)CCC2 = inactive
• C[N+](C)(C)CN1C(=O)c2ccccc2C1=O = inactive
• O=C(O)c1cc(C(=O)O)cc([N+](=O)[O-])c1 = inactive
• OCc1ccccn1 = inactive
• Cc1c(Cl)cccc1NCN1C(=O)c2ccccc2C1=O = inactive
• CNC(=O)c1cccnc1 = inactive

----------
# System: OVCAR-3 ovarian
# Test method notes: NCI-60 one-dose screen, 48 h
# Cond: 100 µM
# Description: Growth inhibition of the OVCAR-3 human tumor cell line is measured as a screen for anti-cancer activity. Cells are grown in 96 well plates and exposed to the test compound for 48 hours. Compounds are tested at a single concentration, which is 10^-5 M for most compounds. The reported endpoint is percent growth (GI% or GIPRCNT), where numbers from 0 - 100% represent growth inhibition, and numbers from -100% - 0 represent cell death. For example, a value of 40 represents 60% growth inhibition. […]
About 83,000 compounds went through this panel and 20% of them were active in at least one assay; those are over-represented in the sample as a whole. Calls of active or inactive are those of the source. Rule for the calls: active = growth percent below 10; inactive = the rest.
Classes used: T (active), F (inactive)

• CCc1ccccc1-n1c(N)c(C#N)c(-c2ccc(OC)c(OC)c2)c(C#N)c1=O = F
• COc1ccc(Cl)cc1C(=O)NCCc1ccc(S(=O)(=O)NC(=O)NC2CCCCC2)cc1 = F
• O=C(O)c1sccc1O = F
• CC#C[C@]1(O)CC[C@H]2[C@@H]3CCC4=CC(=O)CCC4=C3[C@@H](c3ccc4c(c3)OCO4)C[C@@]21C = T

----------
# System: HCT-15 colon
# Test method notes: NCI-60 one-dose screen, 48 h (100 = growth as untreated, 0 = no growth, -100 = all killed)
# Cond: 10 µM unless noted
Compounds without any hit were thinned out: in the full panel of roughly 83,000, 20% have a hit.
Measured attribute: growth (%)

- NC(=O)c1ccccc1OCC(O)CO (stereo not drawn): 98.1
- O=C1c2c(O)cc(O)cc2OC(c2ccc(O)c(O)c2)C1O (stereo not drawn): 108
- CCCCCCCCCCCCOc1ccccc1C=O: 101
- N#C/C(=C1C=C/C(=N/O)C(Br)=C/1)c1ccccc1: 23.1
- CNC(=O)c1cccnc1: 103
- CCOC(=O)C(CNc1ccccc1)C(=O)OCC: 106
- CN(Cc1ccccc1)Cc1ccccc1: 103
- O=C1c2ccccc2C(=O)N1/N=C/c1ccc2c(c1)OCO2: 98.2

----------
// values below are reported growth
# Tested on: 786-0 renal
# Test method notes: NCI-60 one-dose screen, 48 h (100 = growth as untreated, 0 = no growth, -100 = all killed)
# Cond: 10 µM
About 83,000 compounds went through this panel and 20% of them were active in at least one assay; those are over-represented in the sample as a whole.
Measured attribute: growth (%)

- Cc1[nH]c(-c2nc3ccccc3[nH]2)c(C)c1C(=O)NC(C)C1CCCCC1 (stereo unspecified): 95.2
- CNC(=O)c1cc(Oc2ccc(CC(=O)Nc3cc(C(C)(C)C)nn3C)cc2)ccn1: 100
- O=C(O)c1sccc1O: 99.1
- CC(C)(C)c1cc(NC(=O)Cc2ccc(-c3cnc4cc(-c5cnn(CCN6CCOCC6)c5)ccc4n3)cc2)no1: 18
- CC#C[C@]1(O)CC[C@H]2[C@@H]3CCC4=CC(=O)CCC4=C3[C@@H](c3ccc4c(c3)OCO4)C[C@@]21C: 69.5
- CCc1ccccc1-n1c(N)c(C#N)c(-c2ccc(OC)c(OC)c2)c(C#N)c1=O: 107
